# measured.on: recombinant human GR (Homo sapiens, UniProt P04150)
# Construct: purchased Panvera/Invitrogen P2812 (kit P2893)
# Sequence (P04150 1-777): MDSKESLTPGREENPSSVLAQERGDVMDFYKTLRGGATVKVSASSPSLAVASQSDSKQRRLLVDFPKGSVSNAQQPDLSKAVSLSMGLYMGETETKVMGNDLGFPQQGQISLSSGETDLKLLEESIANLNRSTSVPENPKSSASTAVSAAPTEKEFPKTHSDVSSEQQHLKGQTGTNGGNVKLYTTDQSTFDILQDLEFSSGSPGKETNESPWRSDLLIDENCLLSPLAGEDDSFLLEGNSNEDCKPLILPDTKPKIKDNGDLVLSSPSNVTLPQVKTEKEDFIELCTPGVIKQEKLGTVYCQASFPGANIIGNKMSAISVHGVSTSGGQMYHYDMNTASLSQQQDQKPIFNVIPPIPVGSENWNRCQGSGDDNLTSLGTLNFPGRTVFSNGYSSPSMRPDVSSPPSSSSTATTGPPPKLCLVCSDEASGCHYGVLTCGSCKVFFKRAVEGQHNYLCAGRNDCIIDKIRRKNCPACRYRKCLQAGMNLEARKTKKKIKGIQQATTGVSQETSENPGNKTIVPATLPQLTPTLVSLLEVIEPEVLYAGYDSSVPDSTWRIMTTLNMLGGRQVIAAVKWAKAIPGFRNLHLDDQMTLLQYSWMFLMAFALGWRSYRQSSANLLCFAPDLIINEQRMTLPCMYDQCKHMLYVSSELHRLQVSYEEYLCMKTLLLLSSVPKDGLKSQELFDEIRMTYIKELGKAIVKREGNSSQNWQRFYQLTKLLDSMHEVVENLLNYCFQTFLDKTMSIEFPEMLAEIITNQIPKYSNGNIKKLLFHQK
# protocol: Human Glucocorticoid Receptor (GR) Assay (fluorescence polarization, Panvera/Invitrogen kit)
# Assay type: binding
# details: fluorescence polarization; GS Red tracer; 2 hours at room temperature; 100% control 10 μM Dexamethasone; read-out: Inhibition of GR binding, IC50
quantity: IC50
Write your answer as a measured quantity: the number, then the unit.

Query: Quote IC50 reported for C[C@]12Cc3cnn(-c4ccc(F)c(CO)c4)c3C=C1CC[C@@H]1[C@@H]2[C@@H](O)C[C@@]2(C)[C@H]1CC[C@]2(OC(=O)c1ccco1)C(=O)SCF please.
Reply: 4.5 nM

Query: Quote IC50 reported for Cn1cccc1C(=O)O[C@]1(C(=O)SCF)CC[C@H]2[C@@H]3CCC4=Cc5c(cnn5-c5ccc(F)cc5)C[C@]4(C)[C@H]3[C@@H](O)C[C@@]21C please.
Reply: 7.5 nM

Query: Quote IC50 reported for CSC(=O)[C@@]1(OC(=O)c2ccco2)CC[C@H]2[C@@H]3CCC4=Cc5c(cnn5-c5ccc(F)nc5)C[C@]4(C)[C@H]3[C@@H](O)C[C@@]21C please.
Reply: 5.6 nM

Query: Quote IC50 reported for COCC(=O)O[C@]1(C(=O)SCC#N)CC[C@H]2[C@@H]3C[C@H](C)C4=Cc5c(cnn5-c5ccc(F)cc5)C[C@]4(C)[C@H]3[C@@H](O)C[C@@]21C please.
Reply: 51 nM

Query: Quote IC50 reported for CCC(=O)O[C@]1(C(=O)SCC(=O)N(C)C)CC[C@H]2[C@@H]3CCC4=Cc5c(cnn5-c5ccc(F)cc5)C[C@]4(C)[C@H]3[C@@H](O)C[C@@]21C please.
Reply: 3.9 nM

Query: Quote IC50 reported for CCC(=O)O[C@]1(C(=O)SCCO)CC[C@H]2[C@@H]3CCC4=Cc5c(cnn5-c5ccc(F)cc5)C[C@]4(C)[C@H]3[C@@H](O)C[C@@]21C please.
Reply: 3.7 nM

Query: Quote IC50 reported for C[C@]12Cc3cnn(-c4ccc(F)cc4)c3C=C1CC[C@@H]1[C@@H]2[C@@H](O)C[C@@]2(C)[C@H]1CC[C@]2(OC(=O)C1(C#N)CC1)C(=O)SCC#N please.
Reply: 3.4 nM

Query: Quote IC50 reported for COCC(=O)O[C@]1(C(=O)SCC#CCO)CC[C@H]2[C@@H]3CCC4=Cc5c(cnn5-c5ccc(F)cc5)C[C@]4(C)[C@H]3[C@@H](O)C[C@@]21C please.
Reply: 4.5 nM

---
Query: Quote IC50 reported for CCC(=O)O[C@]1(C(=O)SCC#CCO)CC[C@H]2[C@@H]3CCC4=Cc5c(cnn5-c5ccc(F)cc5)C[C@]4(C)[C@H]3[C@@H](O)C[C@@]21C please.
Reply: 4.1 nM

Query: Quote IC50 reported for COCc1cc(-n2ncc3c2C=C2CC[C@@H]4[C@H]([C@@H](O)C[C@@]5(C)[C@H]4CC[C@]5(OC(=O)c4ccco4)C(=O)SCF)[C@@]2(C)C3)ccc1F please.
Reply: 22 nM
